Test system: Coxsackievirus B3
Experiment: Antiviral activity against Coxsackievirus B3 infected in african green monkey […] assessed as inhibition of virus-induced cytopathic effect after 3 days by MTS assay
Format: functional, organism-based
Settings: Enterovirus B, 72 h
Measurement Name: EC50 (nM)

compound="Clc1ncnc2c1ncn2[C@H]1C[C@H]2C[C@@H]1C[C@@H]2c1ccccc1 (relative stereo)" endpoint_result=5720
compound="Clc1ncnc2c1ncn2[C@H]1C[C@H]2C[C@@H]1[C@H](c1ccccc1)C2 (relative stereo)" endpoint_result=2980
compound="OCC1C2COC3C2OC1C3n1cnc2c(Cl)ncnc21 (centres undefined)" endpoint_result=1860
compound=C[C@@H](NC(=O)c1cccc(-c2cnc(-c3cc4ccccc4cn3)[nH]2)c1)c1ccc(F)cc1 endpoint_result=1200
compound="FC1(F)C[C@H]2C[C@H]1C[C@@H]2n1cnc2c(Cl)ncnc21 (relative stereo)" endpoint_result=1000
compound="OCC1C2COC3C2CC1C3n1cnc2c(Cl)ncnc21 (centres undefined)" endpoint_result=1130
compound="O[C@@H]1C[C@H]2C[C@@H]1[C@H](n1cnc3c(Cl)ncnc31)C2 (relative stereo)" endpoint_result=1300
compound="OCC1CC2CC1CC2n1cnc2c(Cl)ncnc21 (centres undefined)" endpoint_result=910
compound="FC1(F)C[C@@H]2C[C@@H](n3cnc4c(Cl)ncnc43)[C@H]1C2 (relative stereo)" endpoint_result=1160

----------
Measured CC50 at 72 h of individual entries
Test: Cytotoxicity against african green monkey Vero cells after 3 days by MTS assay
Assay type: cell-based
Conditions: chlorocebus sabaeus
Measurement Name: CC50 at 72 h

compound="Clc1ncnc2c1ncn2[C@H]1C2C3C[C@H]1C[C@H]32 (relative stereo)" endpoint_result="43.9 µM"
compound="ClCC1C2COC3C2CC1C3n1cnc2c(Cl)ncnc21 (configuration not stated)" endpoint_result="> 50 µM"
compound=Clc1ncnc2c1ncn2[C@@H]1CC2CC1[C@@H](n1cnc3c(Cl)ncnc31)C2 endpoint_result="> 50 µM"
compound="O[C@@H]1C[C@H]2C[C@@H]1[C@@H](n1cnc3c(Cl)ncnc31)C2 (relative stereo)" endpoint_result="47.9 µM"
compound="Clc1ncnc2c1ncn2[C@H]1C[C@H]2C[C@@H]1c1cc3ccccc3cc12 (relative stereo)" endpoint_result="> 50 µM"
compound="Clc1ncnc2c1ncn2[C@H]1C[C@@H]2C=C[C@H]1C2 (relative stereo)" endpoint_result="> 50 µM"
compound="CC1(C)[C@@H]2CC[C@@]1(C)[C@H](n1cnc3c(Cl)ncnc31)C2 (relative stereo)" endpoint_result="> 50 µM"
compound="OCC1CC2CC1C(n1cnc3c(Cl)ncnc31)C2 (configuration not stated)" endpoint_result="> 50 µM"
compound="Clc1ncnc2c1ncn2C[C@@H]1C[C@H]2CC[C@@H]1C2 (relative stereo)" endpoint_result="> 50 µM"
compound="O[C@@H]1[C@@H]2C[C@H]([C@@H]1O)[C@@H](n1cnc3c(Cl)ncnc31)C2 (relative stereo)" endpoint_result="> 50 µM"
compound="Clc1ncnc2c1ncn2[C@H]1C[C@H]2C[C@@H]1C[C@@H]2c1ccccc1 (relative stereo)" endpoint_result="17 µM"
compound="FC1(F)C[C@@H]2C[C@@H](n3cnc4c(Cl)ncnc43)[C@H]1C2 (relative stereo)" endpoint_result="> 50 µM"
compound="Clc1ncnc2c1ncn2[C@H]1C[C@H]2C[C@@H]1C[C@@H]2n1cnc2c(Cl)ncnc21 (relative stereo)" endpoint_result="> 50 µM"
compound="ClCC1C2COC3C2OC1C3n1cnc2c(Cl)ncnc21 (configuration not stated)" endpoint_result="> 50 µM"
compound="O[C@H]1C[C@H]2C[C@@H]1C[C@@H]2n1cnc2c(Cl)ncnc21 (relative stereo)" endpoint_result="> 50 µM"
compound="O[C@@H]1C[C@H]2C[C@@H]1[C@H](n1cnc3c(Cl)ncnc31)C2 (relative stereo)" endpoint_result="> 50 µM"
compound="Clc1ncnc2c1ncn2[C@@H]1C[C@@H]2C[C@H]1[C@@H]1O[C@@H]21 (relative stereo)" endpoint_result="> 50 µM"
